Overview of recorded viability at 48 h, 10 µM for various compounds
assay: Cell viability measurement (MTS), Vero cells; assay type: cell-based; settings: monkey, 10 μM

MOLECULAR_STRING	RESULT_VALUE
c1cc(Nc2ccc(-c3ccncn3)cc2)cc(-c2nc3ccccc3[nH]2)c1	50 to 80%

[ask] Looking for the measured viability at 48 h, 10 µM of c1ccc(-c2ccc(Nc3cccc(-c4nc5ccccc5[nH]4)c3)cc2)nc1 , can you help?
[reply] 50 to 80%

[ask] Queued: FC(F)(F)c1ccc2nc(-c3cccc(Nc4ncc(-c5cccnn5)cn4)c3)[nH]c2c1
[reply] > 80%

[ask] And the next one, c1ccc(-c2ccc(Nc3cccc(-c4nc5ccccc5[nH]4)c3)nn2)cc1 ?
[reply] 50 to 80%

----------
test: Cell viability measurement (MTS), Calu-3 cells; format: cell-based; conditions: human, 1 μM
The compounds listed here are annotated with their viability at 48 h, 1 µM.

COMPOUND	viability at 48 h, 1 µM
Fc1ccc2nc(-c3cccc(Nc4ncc(-c5cccnn5)cn4)c3)[nH]c2c1 [Example 51]	> 80%
Fc1cc2[nH]c(-c3cccc(Nc4ccc(-c5cccnn5)cc4)c3)nc2cc1Cl [Example 102]	> 80%
FC(F)(F)c1ccc2nc(-c3cccc(Nc4ccc(-c5ccccn5)cn4)c3)[nH]c2c1 [Example 57]	50 to 80%

Could you now look at the following compound, please?
[ask] Fill in the blank: the reported viability at 48 h, 1 µM of c1cc(Nc2ccc(-c3ccncn3)cc2)cc(-c2nc3ccccc3[nH]2)c1 [Example 22] is ____.
[reply] > 80%

----------
system: Severe Acute Respiratory Syndrome Coronavirus Type 2; assay: microbe, parasite or virus in culture; format: cell-based; conditions: Vero, 10 uM, virus strain NCCP-43388, 48 hours, read-out: Virus replication inhibition efficacy
inhibition at 10 µM by entry:

Solved cases below.
MOLECULAR_STRING	inhibition at 10 µM
Fc1cccc(-c2cnc(Nc3cccc(-c4nc5ccc(C(F)(F)F)cc5[nH]4)c3)nc2)n1	30 to 60%
c1ccc(-c2ccc(Nc3cccc(-c4nc5ccccc5[nH]4)c3)nn2)cc1	> 60%
CN(Cc1ccccc1)c1ccc2nc(-c3cccc(Nc4ccc(-c5cccnn5)cc4)c3)[nH]c2c1	> 60%

[ask] Which inhibition at 10 µM is listed for O=[N+]([O-])c1ccc2nc(-c3cccc(Nc4ccc(-c5cccnn5)cc4)c3)[nH]c2c1 ?
[reply] 30 to 60%

[ask] Another molecule: c1cc(Nc2ncc(-c3ccsc3)cn2)cc(-c2nc3ccccc3[nH]2)c1
[reply] > 60%

[ask] // next record N#Cc1ccc2nc(-c3cccc(Nc4ccc(-c5cccnn5)cc4)c3)[nH]c2c1
[reply] > 60%

[ask] FC(F)(F)c1ccc2nc(-c3cccc(Nc4ccc(-c5ncccn5)cc4)c3)[nH]c2c1 ?
[reply] > 60%

[ask] Now consider Fc1cc2[nH]c(-c3cccc(Nc4ccc(-c5cccnn5)cc4)c3)nc2cc1Cl and answer again.
[reply] > 60%

----------
Assay: Cell viability measurement (MTS), Calu-3 cells
Assay type: cell-based
Settings: human, 1 μM
Experimental: Experimental Example 3: Cell Viability Measurement Vero cell line (VERO01WCB-1201, Ministry of Food and Drug Safety, Republic of Korea), Calu-3 cell line (KCLB #30055, Korea Cell Line Bank (KCLB), Republic of Korea), CellTiter 96® AQueous One Solution Cell Proliferation Assay kit (Promega, cat. #G3582), and Infinite M200 microplate reader (Tecan). […] The cell viability (also, referred to as cell survival rate) (%) by compound treatment was calculated using the following analysis method. […]
READOUT: viability at 48 h, 1 µM

Sample records with viability at 48 h, 1 µM:
MOLECULAR_STRING	READOUT	RESULT_VALUE
Fc1cc2nc(-c3cccc(Nc4ccc(-c5ccncn5)cc4)c3)[nH]c2cc1F	viability at 48 h, 1 µM	50 to 80%
c1cc(Nc2ccc(-c3ccncc3)cc2)cc(-c2nc3ccccc3[nH]2)c1	viability at 48 h, 1 µM	50 to 80%
c1cc(Nc2ccc(-c3cccnn3)cn2)cc(-c2nc3ccccc3[nH]2)c1	viability at 48 h, 1 µM	> 80%
c1cc(Nc2ccc(-c3cccnn3)cc2)cc(-c2nc3ccccc3[nH]2)c1	viability at 48 h, 1 µM	> 80%
FC(F)(F)c1ccc2nc(-c3cccc(Nc4ccc(-c5ncccn5)cn4)c3)[nH]c2c1	viability at 48 h, 1 µM	50 to 80%

[ask] Recorded viability at 48 h, 1 µM for c1cc(Nc2ncc(-c3cncnc3)cn2)cc(-c2nc3ccccc3[nH]2)c1 , please?
[reply] > 80%

[ask] Could you do the same for c1ccc(-c2ccc(Nc3cccc(-c4nc5ccccc5[nH]4)c3)nc2)nc1 , please?
[reply] > 80%

[ask] Same question for c1cc(Nc2ccc(-c3ccnnc3)cc2)cc(-c2nc3ccccc3[nH]2)c1 please.
[reply] 50 to 80%

[ask] Do the same for c1cnc(-c2cnc(Nc3cccc(-c4nc5ccccc5[nH]4)c3)nc2)nc1 please
[reply] > 80%

[ask] Same question, c1cnc(-c2ccc(Nc3cccc(-c4nc5ccccc5[nH]4)c3)cc2)nc1 this time
[reply] > 80%

[ask] Param item: Cc1cscc1-c1cnc(Nc2cccc(-c3nc4ccccc4[nH]3)c2)nc1
[reply] > 80%

[ask] Then what about the molecule COc1ccc2nc(-c3cccc(Nc4ncc(-c5cccnn5)cn4)c3)[nH]c2c1 ?
[reply] > 80%

[ask] What do you get for c1cc(Nc2ncc(-c3cccnn3)cn2)cc(-c2nc3ccccc3[nH]2)c1 ?
[reply] > 80%

[ask] Also Cc1cccc2nc(-c3cccc(Nc4ccc(-c5cccnn5)cc4)c3)[nH]c12 ?
[reply] > 80%

[ask] Repeat with CC(C)(C)c1ccc2nc(-c3cccc(Nc4ccc(-c5cccnn5)cc4)c3)[nH]c2c1
[reply] > 80%

[ask] Also check c1ccc(-c2ccc(Nc3cccc(-c4nc5ccccc5[nH]4)c3)cc2)cc1
[reply] 50 to 80%

[ask] Also Fc1cc2nc(-c3cccc(Nc4ncc(-c5cccnn5)cn4)c3)[nH]c2cc1F ?
[reply] > 80%
